TARGET_OF_ASSAY: Phosphatidylinositol 4,5-bisphosphate 3-kinase catalytic subunit delta isoform (Homo sapiens)
Sequence (O00329 whole entry, canonical isoform): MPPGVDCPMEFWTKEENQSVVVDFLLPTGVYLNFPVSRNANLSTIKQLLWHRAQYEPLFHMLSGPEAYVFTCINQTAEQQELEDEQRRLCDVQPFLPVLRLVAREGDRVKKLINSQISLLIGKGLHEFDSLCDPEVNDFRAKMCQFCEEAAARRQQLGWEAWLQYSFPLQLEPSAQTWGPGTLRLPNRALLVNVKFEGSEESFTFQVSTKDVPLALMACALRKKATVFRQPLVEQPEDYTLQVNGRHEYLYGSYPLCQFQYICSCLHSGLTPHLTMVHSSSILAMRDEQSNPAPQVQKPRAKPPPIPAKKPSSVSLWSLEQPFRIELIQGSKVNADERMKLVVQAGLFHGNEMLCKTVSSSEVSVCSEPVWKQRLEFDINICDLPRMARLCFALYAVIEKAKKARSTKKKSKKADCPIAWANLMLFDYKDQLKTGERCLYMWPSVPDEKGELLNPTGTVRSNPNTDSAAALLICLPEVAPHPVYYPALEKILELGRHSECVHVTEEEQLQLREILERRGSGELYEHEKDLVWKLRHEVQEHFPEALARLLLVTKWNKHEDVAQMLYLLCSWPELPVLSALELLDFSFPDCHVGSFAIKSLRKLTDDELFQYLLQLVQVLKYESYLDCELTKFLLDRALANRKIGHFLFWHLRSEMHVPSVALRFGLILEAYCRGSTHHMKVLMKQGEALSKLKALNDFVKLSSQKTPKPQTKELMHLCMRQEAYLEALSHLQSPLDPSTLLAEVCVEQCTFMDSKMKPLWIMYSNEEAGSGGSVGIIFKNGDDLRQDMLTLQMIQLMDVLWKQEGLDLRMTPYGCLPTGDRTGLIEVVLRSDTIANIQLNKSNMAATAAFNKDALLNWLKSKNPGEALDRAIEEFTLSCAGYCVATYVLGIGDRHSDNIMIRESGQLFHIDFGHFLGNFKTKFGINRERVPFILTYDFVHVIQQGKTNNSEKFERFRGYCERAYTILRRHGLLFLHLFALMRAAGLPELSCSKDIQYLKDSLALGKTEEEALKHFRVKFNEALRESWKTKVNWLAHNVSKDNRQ
ASSAY_DETAILS: The final concentrations of ATP and phosphatidyl inositol in the assay are 5 μM and 6 μg/mL, respectively. The reaction is started by the addition of PI3 kinase, e.g. PI3 kinase 6.p110δ.The components of the assay are added per well as follows 10 μl test compound in 5% DMSO per well in columns 2-1. Total activity is determined by addition 10 μl of 5% vol/vol DMSO in the first 4 wells of column 1 and the last 4 wells of column 12. The background is determined by addition of 10 μM control compound to the last 4 wells of column 1 and the first 4 wells of column 12. 2 mL Assay mix are prepared per plate 1.912 mL of HEPES assay buffer 8.33 μl of 3 mM stock of ATP giving a final concentration of 5 μM per well 1 μl of [33P]ATP on the activity date giving 0.05 μCi per well 30 μl of 1 mg/mL PI stock giving a final concentration of 6 μg/mL per well 5 μl of 1 M stock MgCl2 giving a final concentration of 1 mM per well 20 μl of the assay mix are added per well. 2 mL Enzyme mix are prepared per plate (x* μl PI3 kinase p110(3 in 2 mL of kinase buffer). The Enzyme mix is kept on ice during addition to the assay plates. 20 μl ‘Enzyme mix’ are added/well to start the reaction. The plate is then incubated at room temperature for 90 minutes. The reaction is terminated by the addition of 50 μl WGA-SPA bead (wheat germ agglutinin-coated Scintillation Proximity Assay beads) suspension per well. The assay plate is sealed using TopSeal-S (heat seal for polystyrene microplates, PerkinElmer LAS [Deutschland] GmbH, Rodgau, Germany) and incubated at room temperature for at least 60 minutes. The assay plate is then centrifuged at 1500 rpm for 2 minutes using the Jouan bench top centrifuge (Jouan Inc., Nantes, France). The assay plate is counted using a Packard TopCount, each well being counted for 20 seconds. The volume of enzyme is dependent on the enzymatic activity of the batch in use.In a more preferred assay, the kinase reaction is performed in a final volume of 10 μl per well of a low volume non-binding CORNING, 384 well black plate (Cat. No. #3676). The final concentrations of ATP and phosphatidyl inositol (PI) in the assay are 1 μM and 10 μg/mL, respectively. The reaction is started by the addition of ATP.The components of the assay are added per well as follows:50 nl test compounds in 90% DMSO per well, in columns 1-20, 8 concentrations (⅓ and 1/3.33 serial dilution step) in single. Low control: 50 nl of 90% DMSO in half the wells of columns 23-24 (0.45% in final). High control: 50 nl of reference compound (e.g. compound of Example 7 in WO 2006/122806) in the other half of columns 23-24 (2.5 μM in final). Standard: 50 nl of reference compound as just mentioned diluted as the test compounds in columns 21-22. 20 mL buffer are prepared per assay 200 μl of 1M TRIS HCl pH7.5 (10 mM in final) 60 μl of 1M MgCl2 (3 mM in final) 500 μl of 2M NaCl (50 mM in final) 100 μl of 10% CHAPS (0.05% in final) 200 μl of 100 mM DTT (1 mM in final) 18.94 mL of nanopure water 10 mL PI are prepared per assay 200 μl of 1 mg/mL 1-alpha-Phosphatidylinositol (Liver Bovine, Avanti Polar Lipids Cat. No. 840042C MW=909.12) prepared in 3% OctylGlucoside (10 μg/mL in final) 9.8 mL of buffer 10 mL ATP are prepared per assay.
QUANTITY_KIND: IC50 (µM)

Here are 3 compounds together with their reported answers.
O=C(C1CCOCC1)N1CC[C@H](Oc2ccc3c(c2)N(c2cncc(S(=O)(=O)N4CCOCC4)c2)CCO3)C1    0.003
Cc1cc(N2CCOc3ccc(O[C@H]4CCN(C(=O)c5ccc(=O)[nH]c5)C4)cc32)cnc1Cl    0.035
O=C(C1CCOCC1)N1CC[C@H](Oc2ccc3c(c2)N(c2cncc(C(F)(F)F)c2)CCO3)C1    0.009

(1) Cc1ccc(N2CCOc3ccc(O[C@H]4CCN(C(=O)C5CCOCC5)C4)cc32)cn1
(2) COc1ncc(N2CCOc3ccc(O[C@H]4CCN(C(=O)c5cn(C)cn5)C4)cc32)cc1F
(3) CC(C)S(=O)(=O)c1cncc(N2CCOc3ccc(O[C@H]4CCN(C(=O)C5CCOCC5)C4)cc32)c1
Incoming: Form: Sort by [IC50] Order [ ascending ] List the labels in the requested order.
Outgoing: 2, 1, 3
(2: 0.0102 µM, 1: 0.037 µM, 3: 0.11 µM)

(a) Cc1cc(N2CCOc3ccc(O[C@H]4CCN(C(=O)c5cn(C)cn5)C4)cc32)cnc1Cl
(b) COc1ncc(N2CCOc3ccc(O[C@H]4CCN(C(=O)C(C)C)C4)cc32)cc1C#N
Incoming: Which value of IC50 is numerically greater: that of a or that of b ? Choose, then provide that item's label.
Outgoing: a

(P) COc1cc(N2CCOc3ccc(O[C@H]4CCN(C(=O)C5CCC(F)(F)CC5)C4)cc32)cnc1S(C)(=O)=O
(Q) Cc1cc(N2CCOc3cnc(O[C@H]4CCN(C(=O)C5CCS(=O)(=O)CC5)C4)cc32)cnc1OC(F)F
Incoming: Higher IC50: P or Q ? Write down the label of the entry you select.
Outgoing: P
